Assay: Phase 1 open-label, fixed-sequence, single-ascending dose and food-effect PK study of MT1621 in adult healthy subjects
Format: in vivo, human
Conditions: both sexes, human, plasma, oral, 43.3 mg/kg, Treatment A: single 43.3 mg/kg MT1621, fasted; baseline-adjusted plasma; median (minimum, maximum); read-out: Tmax
Procedure: A phase 1 study was conducted as an open-label, fixed-sequence, single-ascending dose study in adult healthy subjects designed to evaluate the safety, tolerability, PK, and food-effect of MT1621 (dC and dT). […] Each treatment was assessed by blood and urine PK sampling pre-dose and up to 48 hours post-dose for the determination of dC and dT in plasma and urine PK, and possible future analysis of blood for PD biomarkers. […]
value-kind: Tmax (min)

1. Cc1cn([C@H]2C[C@H](O)[C@@H](CO)O2)c(=O)[nH]c1=O
2. Nc1ccn([C@H]2C[C@H](O)[C@@H](CO)O2)c(=O)n1
Q: Please state the entry with greater Tmax among 1 and 2 . Returns: label corresponding to the selected item.
Ans: 2
